Data credit: paper PMC2229513

# Assay target: αS589N ENaC mutant (Rattus norvegicus, UniProt P37089+P37090+P37091, S589N)
# Sequence (P37089 1-698 S589N): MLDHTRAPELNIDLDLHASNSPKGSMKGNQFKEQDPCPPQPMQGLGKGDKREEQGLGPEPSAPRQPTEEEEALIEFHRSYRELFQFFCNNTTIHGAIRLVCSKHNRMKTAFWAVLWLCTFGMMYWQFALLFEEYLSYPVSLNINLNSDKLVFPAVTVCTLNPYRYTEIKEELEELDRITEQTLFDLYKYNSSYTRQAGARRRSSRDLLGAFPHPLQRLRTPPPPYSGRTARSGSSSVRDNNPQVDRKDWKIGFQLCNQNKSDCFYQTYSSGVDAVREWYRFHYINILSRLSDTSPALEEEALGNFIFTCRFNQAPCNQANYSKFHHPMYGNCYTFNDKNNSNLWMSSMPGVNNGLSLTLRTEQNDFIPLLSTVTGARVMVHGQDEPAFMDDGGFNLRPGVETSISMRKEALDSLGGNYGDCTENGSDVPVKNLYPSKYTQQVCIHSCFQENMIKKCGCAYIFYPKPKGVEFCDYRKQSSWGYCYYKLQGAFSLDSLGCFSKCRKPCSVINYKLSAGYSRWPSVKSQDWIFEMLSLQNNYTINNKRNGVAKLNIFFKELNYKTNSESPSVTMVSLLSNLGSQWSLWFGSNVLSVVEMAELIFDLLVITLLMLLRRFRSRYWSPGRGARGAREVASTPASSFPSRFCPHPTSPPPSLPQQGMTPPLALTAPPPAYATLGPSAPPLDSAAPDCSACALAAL
# Sequence (P37090 1-638): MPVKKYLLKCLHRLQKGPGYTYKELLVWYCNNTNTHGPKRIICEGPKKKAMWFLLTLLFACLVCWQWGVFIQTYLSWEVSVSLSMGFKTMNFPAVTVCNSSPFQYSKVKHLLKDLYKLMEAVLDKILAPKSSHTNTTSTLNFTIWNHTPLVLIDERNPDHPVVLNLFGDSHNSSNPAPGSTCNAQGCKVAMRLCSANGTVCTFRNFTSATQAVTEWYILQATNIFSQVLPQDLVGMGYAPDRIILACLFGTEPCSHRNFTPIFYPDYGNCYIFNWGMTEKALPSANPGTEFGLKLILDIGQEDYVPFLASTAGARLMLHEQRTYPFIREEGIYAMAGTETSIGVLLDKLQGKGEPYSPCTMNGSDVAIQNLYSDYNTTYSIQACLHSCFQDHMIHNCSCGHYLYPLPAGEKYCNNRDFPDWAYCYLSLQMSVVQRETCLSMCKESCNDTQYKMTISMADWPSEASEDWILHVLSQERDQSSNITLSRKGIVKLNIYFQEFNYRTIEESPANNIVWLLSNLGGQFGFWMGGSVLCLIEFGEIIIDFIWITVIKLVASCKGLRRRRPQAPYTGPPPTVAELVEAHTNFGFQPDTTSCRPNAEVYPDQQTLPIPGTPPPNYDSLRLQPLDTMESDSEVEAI
# Sequence (P37091 1-650): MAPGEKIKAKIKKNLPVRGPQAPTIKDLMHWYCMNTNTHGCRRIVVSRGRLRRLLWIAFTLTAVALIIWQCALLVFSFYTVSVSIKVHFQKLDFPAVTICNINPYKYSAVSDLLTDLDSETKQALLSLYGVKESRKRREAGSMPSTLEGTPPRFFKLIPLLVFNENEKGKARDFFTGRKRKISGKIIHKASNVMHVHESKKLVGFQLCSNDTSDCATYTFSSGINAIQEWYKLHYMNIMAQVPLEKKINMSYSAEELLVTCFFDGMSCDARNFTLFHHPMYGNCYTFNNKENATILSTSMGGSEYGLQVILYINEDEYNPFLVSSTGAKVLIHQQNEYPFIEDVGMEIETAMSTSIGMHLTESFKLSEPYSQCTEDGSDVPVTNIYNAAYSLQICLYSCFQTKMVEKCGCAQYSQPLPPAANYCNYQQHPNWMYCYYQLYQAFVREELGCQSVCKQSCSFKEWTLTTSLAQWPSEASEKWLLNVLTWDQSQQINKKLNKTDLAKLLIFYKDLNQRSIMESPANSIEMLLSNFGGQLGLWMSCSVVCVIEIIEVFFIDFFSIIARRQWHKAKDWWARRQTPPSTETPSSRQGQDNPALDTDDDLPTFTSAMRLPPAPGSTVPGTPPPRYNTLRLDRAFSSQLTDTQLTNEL
# Assay type: cell-based
# Condition context: IC50 for amiloride block of the NH4+ current, NH4+ current; n = 6–7
Metric name: pIC50
Would you please state pIC50, meaning minus log10 of the concentration in mol/L, as a bare number?

**Q:** Requested read-out: pIC50. Entry: N=C(N)NC(=O)c1nc(Cl)c(N)nc1N [amiloride]
**A:** 6.72

----------
# Assay target: αS589H ENaC mutant (Rattus norvegicus, UniProt P37089+P37090+P37091, S589H)
# Type: cell-based
Metric name: IC50 (nM)
Report only the number, with the unit nM understood.

**Q:** Requested read-out: IC50. Entry: N=C(N)NC(=O)c1nc(Cl)c(N)nc1N [amiloride]
**A:** 2800

----------
# Assay target: αS589N ENaC mutant (Rattus norvegicus, UniProt P37089+P37090+P37091, S589N)
# Assay type: cell-based
# Condition context: IC50 for amiloride block, Na+ as the main extracellular cation; n = 6–16
Metric name: IC50 (nM)
Report only the number, with the unit nM understood.

**Q:** Requested read-out: IC50. Entry: N=C(N)NC(=O)c1nc(Cl)c(N)nc1N [amiloride]
**A:** 440
